test-description: yeast display, Sf9 membrane polyspecificity reagent, FACS + sequencing; frameworks hold sequencing errors
reported-property: polyreactivity (PSR sort gate)

>  <query-sequence>
QVQLVETGGGLVQAGGSLRLSCAASGSIFVTNAMGWYRQPPGKEREFVAAISSSDDSTYYADSVKGRFTISRDNAKNTVYLQMHSLKPEDTAVYYCASDWLFNIIAYDYGLDSWGQGTQVTVSS

>  <reported-result>
low polyreactivity

$$$$
>  <query-sequence>
QVQLVESGGGLVQAGGSLRLSCAASGFTFGINAKGWYRQAPGKERELVAALSWSGGSTYYADSVKGRFTISRDNAKNTVYLQMNSLKPEDTAVYYCAVVWFSLWYKGSTFNRYDYWGQGTQVTVSS

>  <reported-result>
low polyreactivity

$$$$

====

test-description: yeast display, Sf9 membrane polyspecificity reagent, FACS + sequencing; frameworks hold sequencing errors
reported-property: polyreactivity (PSR sort gate)

Consider the reported polyreactivity (PSR sort gate) for these sequences:
>  <query-sequence>
QVQLVESGGGLVQAGGSLRLSCAASGRIFALYAMGGYRQAPGKERELVAAISIRAGSTYYADSAKGRFTISRDNAKNTVYLQMNSLKPEDTAVYYCATKGWVSTSYYYRPYGYWGQGTQVTVSS

>  <polyreactivity (PSR sort gate)>
high polyreactivity

$$$$
>  <query-sequence>
QVQLVESGGGLVQAGGSLRLSCAASGLIFPFYTMGWYRQAPGKERELVASISSGASTYYADSVKGRFTISRDNAKNTVYLQMNSLKPEDTAVYYCNADTFAWEGQRKWFAYDYWGQGTQVTVSS

>  <polyreactivity (PSR sort gate)>
low polyreactivity

$$$$
>  <query-sequence>
QVQLVESGGGLVQAGGSLRLICAASGITLDGNAMGWYRQAPGKERELVAAITSGGGTNYADSVKGRFTISRDNAKNTVYLQMNSLKPEDTAVYYCAAEGYVGYYDYDYWGQGTQVTVSS

>  <polyreactivity (PSR sort gate)>
low polyreactivity

$$$$
>  <query-sequence>
QDQLVESGGGLVQAGGSLRLSCAASGSIFTYNAMGWYRPAPGKERELVAAINTSGSTNYADSVKGRFTISRDNAKNTVYLQKYSLKPEDTAVYYCAAGIVVTVYDYWRQGTQVTVSS

>  <polyreactivity (PSR sort gate)>
low polyreactivity

$$$$
>  <query-sequence>
QVQLVESGGGLVPAGGSLRLSCAASGYIFDYNAMGWYRQAPGKERELVAAITFRDGSTYADSVKGRFTISRDNAKNTVYLQMNSLKPEDTAVYYCNRRSQVHSHSKHDYWGQGTQVTVSS

>  <polyreactivity (PSR sort gate)>
low polyreactivity

$$$$
>  <query-sequence>
QVQLVESGGGLVQAGGSLRLSCAASGSIFSPYTMGWYRQAPGKERELVAAMSASGGSTYYADSVKGRFTISRDNAKNTVYLQMNSLKPEDTAVYYCNVYRITRHSYNCGFDYWGQGTQVTVSS

>  <polyreactivity (PSR sort gate)>
low polyreactivity

$$$$

sequence `QVQLVESGVGLVQAGGSLRLSCAASGRTFPSYNMGWYRQAPGKERELVAAITWTGGSTYYSDSVKGRFTISRDNAKNTVYLQMNSLKPEDTAVYYCATEEVYGQGNYWGQGTQVTVSS` , polyreactivity (PSR sort gate) observed: low polyreactivity

sequence `QVQLVESGGGLVQAGGSLRLSCAASGRTFVANDMAWYTHAPGKERELFAAISYSGGSTYYADSVKGRFTISRDNAKNTVYLQMNSLKPEDTEVYYCNAYYYGGVRKQHGYWGQVTQVTVSS` , polyreactivity (PSR sort gate) observed: low polyreactivity
